- Test System: PKC α (Homo sapiens, UniProt P17252)
- Construct: purchased CALBIOCHEM
- Test Method Notes: PKC enzyme assay (BIOTRAK Protein kinase C enzyme assay system, 32P-ATP phosphorylation of peptide […])
- Type: biochemical
- Measurement Setup: read-out: Inhibition of PKC activity IC50 PKC α; Protein Kinase C, Human Recombinant; test substance 1 nM-10 µM; 37°C, 15 minutes
Quick rule for you: IC50 under 800 nM gets 1.0, anything else gets 0.0.

CCN(CC)C[C@H]1CCc2c(C3=C(Nc4ccccc4)C(=O)NC3=O)c3ccccc3n2C1 : 1.0
CCN(C)C[C@H]1CCn2c(c(C3=C(Nc4ccccc4)C(=O)NC3=O)c3ccccc32)C1 : 1.0
CCN(C)C[C@@H]1CCc2c(C3=C(Nc4ccc5c(c4)OCO5)C(=O)NC3=O)c3ccccc3n2C1 : 0.0
O=C1NC(=O)C(c2c3n(c4ccccc24)CC(Cn2ccnc2)C3)=C1Nc1ccccc1 (stereo not shown) : 1.0
COC[C@H]1Cc2c(C3=C(Nc4ccc(F)cc4)C(=O)NC3=O)c3ccccc3n2C1 : 0.0
O=C1NC(=O)C(c2c3n(c4ccccc24)C[C@@H](CN2CCOCC2)CC3)=C1Nc1ccccc1 : 0.0
O=C1NC(=O)C(c2c3n(c4ccccc24)CCCC(Cn2ccnc2)C3)=C1Nc1ccccc1 (stereo not shown) : 0.0
O=C1NC(=O)C(c2c3n(c4ccccc24)C[C@H](CO)C3)=C1Nc1ccccc1 : 0.0
CN(C)C[C@H]1CCc2c(C3=C(Nc4ccccc4)C(=O)NC3=O)c3ccccc3n2C1 : 1.0
CCN(C)C[C@H]1Cc2c(C3=C(Nc4ccc(F)cc4)C(=O)NC3=O)c3ccccc3n2C1 : 1.0
O=C1NC(=O)C(c2c3n(c4ccccc24)C[C@@H](CO)C3)=C1Nc1ccccc1 : 1.0
CCNCC1Cc2c(C3=C(Nc4ccc(F)cc4)C(=O)NC3=O)c3ccccc3n2C1 (stereo not shown) : 1.0
O=C1NC(=O)C(c2c3n(c4ccccc24)C[C@H](CN2CCOCC2)CC3)=C1Nc1ccccc1 : 0.0
CN(C)C[C@H]1Cc2c(C3=C(Nc4ccccc4)C(=O)NC3=O)c3ccccc3n2C1 : 1.0
O=C1NC(=O)C(c2c3n(c4ccccc24)CC(CN2CCC(O)CC2)C3)=C1Nc1ccccc1 (stereo not shown) : 0.0
O=C1NC(=O)C(c2c3n(c4ccccc24)C[C@H](CN2CCOCC2)C3)=C1Nc1ccccc1 : 0.0
O=C1NC(=O)C(c2c3n(c4ccccc24)C[C@@H](CO)C=C3)=C1Nc1ccccc1 : 0.0
CN(C)C[C@@H]1CCc2c(C3=C(Nc4ccccc4)C(=O)NC3=O)c3ccccc3n2C1 : 1.0
CCN(CC)C[C@H]1Cc2c(C3=C(Nc4ccccc4)C(=O)NC3=O)c3ccccc3n2C1 : 0.0
CCN(CC)C[C@@H]1CCc2c(C3=C(Nc4ccccc4)C(=O)NC3=O)c3ccccc3n2C1 : 1.0
CCN(C)C[C@H]1Cc2c(C3=C(Nc4ccccc4)C(=O)NC3=O)c3ccccc3n2C1 : 1.0
CN(C)C[C@H]1Cc2c(C3=C(Nc4ccc(F)cc4)C(=O)NC3=O)c3ccccc3n2C1 : 1.0
O=C1NC(=O)C(c2c3n(c4ccccc24)C[C@@H](CN2CCCC2)C3)=C1Nc1ccccc1 : 1.0
CCNCC1Cc2c(C3=C(Nc4ccccc4)C(=O)NC3=O)c3ccccc3n2C1 (stereo not shown) : 1.0
NC(=O)c1cccc(NC2=C(c3c4n(c5ccccc35)C[C@H](CO)CC4)C(=O)NC2=O)c1 : 0.0
CCN(C)C[C@@H]1CCc2c(C3=C(Nc4cccc(SC)c4)C(=O)NC3=O)c3ccccc3n2C1 : 0.0
O=C1NC(=O)C(c2c3n(c4ccccc24)CC[C@H](CN2CCSCC2)C3)=C1Nc1ccccc1 : 1.0
O=C1NC(=O)C(c2c3n(c4ccccc24)CC[C@H](CN2CCOCC2)C3)=C1Nc1ccccc1 : 1.0

Each recorded value in this set is attributed to patent EP1120414A1.
